Test Readout: boiling point (°C)
Kindly answer with a numeric value in °C, unit omitted.

Look up boiling point of CCCCCCC and report it. 98.5

Look up boiling point of Fc1cc(F)c(F)nc1F and report it. 102

Look up boiling point of O=[N+]([O-])c1cc(Cl)ccc1Cl and report it. 267

Look up boiling point of CCN(C)N=O and report it. 170

Look up boiling point of CCCCN(CCCC)c1ccccc1 and report it. 275

Look up boiling point of CC1=CC[C@@H]2CC1OC2(C)C and report it. 184

Look up boiling point of Brc1cncc2ccccc12 and report it. 282

----------
Conditions: fish
This section presents compounds with their documented log10 biotransformation half-life (days) values.
Lab note: jot down the number only; don't add units.

Here are 5 compounds together with their reported answers.
CCOC(=O)CC(SP(=O)(OC)OC)C(=O)OCC (stereo not drawn)
-1.04
O=NN(c1ccccc1)c1ccccc1
-0.91
CNC(=O)Oc1cccc2ccccc12
-1.18
CC(C)C(O)C(C)(C)CO (stereo not drawn)
-1.34
c1cc2cccc3c4cccc5cccc(c(c1)c23)c54
-0.06

Look up log10 biotransformation half-life (days) of CCCCCCC1CCCCC1 and report it. 0.7

Look up log10 biotransformation half-life (days) of O=[N+]([O-])c1cccc(Cl)c1Cl and report it. 0.54

Look up log10 biotransformation half-life (days) of CC=C1CC2C=CC1C2 (stereo not drawn) and report it. -0.56
